Each recorded value in this set is attributed to patent US20110059095A1.

target: T1, Peptide G (rat PAR-2), unbiotinylated (Rat (Rattus norvegicus)); assay: SPR, antibody captured
T1 construct: also called Peptide G No Biotin
T1 peptide: GPNSKGRSLIGRLDTP
measurement name: Kd
Param answer (str): number followed by unit.

Item H4H583P (antibody, human IgG4, V domains shown, also called H1H583P variable regions) VH: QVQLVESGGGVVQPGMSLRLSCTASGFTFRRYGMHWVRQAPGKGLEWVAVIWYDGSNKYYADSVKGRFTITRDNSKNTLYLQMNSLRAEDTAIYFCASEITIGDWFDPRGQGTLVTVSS VL: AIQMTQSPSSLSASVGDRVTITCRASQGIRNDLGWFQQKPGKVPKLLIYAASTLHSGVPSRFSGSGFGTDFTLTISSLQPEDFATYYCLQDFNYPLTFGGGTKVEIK has what recorded Kd?
530 nM

Which Kd value is on record for H4H584P (antibody, human IgG4, V domains shown, also called H1H584P variable regions) VH: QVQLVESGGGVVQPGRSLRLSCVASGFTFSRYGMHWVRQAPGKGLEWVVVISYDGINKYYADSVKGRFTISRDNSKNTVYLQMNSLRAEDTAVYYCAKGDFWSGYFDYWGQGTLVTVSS VL: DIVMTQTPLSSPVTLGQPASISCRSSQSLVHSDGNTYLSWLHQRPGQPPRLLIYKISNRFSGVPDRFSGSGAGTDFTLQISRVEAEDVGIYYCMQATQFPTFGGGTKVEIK ?
246 nM

Fill in: Kd of H4H581P (antibody, human IgG4, V domains shown, also called mAb H4H581P; H1H581P variable regions) VH: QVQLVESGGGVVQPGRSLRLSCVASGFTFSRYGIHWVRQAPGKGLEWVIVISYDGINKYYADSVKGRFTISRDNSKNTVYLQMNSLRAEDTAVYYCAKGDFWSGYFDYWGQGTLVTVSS VL: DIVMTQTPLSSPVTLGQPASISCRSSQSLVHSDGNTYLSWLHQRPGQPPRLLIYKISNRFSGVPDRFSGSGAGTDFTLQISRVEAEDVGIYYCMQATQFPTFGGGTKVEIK is ___
40.2 nM

Continuing:
Fill in the blank: the reported Kd of H4H585P (antibody, human IgG4, V domains shown, also called H1H585P variable regions) VH: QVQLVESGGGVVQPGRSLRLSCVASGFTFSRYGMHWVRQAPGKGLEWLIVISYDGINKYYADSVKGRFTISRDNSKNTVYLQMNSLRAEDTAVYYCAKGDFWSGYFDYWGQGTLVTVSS VL: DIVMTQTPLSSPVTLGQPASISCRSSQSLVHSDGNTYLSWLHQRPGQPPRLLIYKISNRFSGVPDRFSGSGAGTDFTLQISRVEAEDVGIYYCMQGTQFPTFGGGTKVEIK is ____.
162 nM
